system: LOC_OS01G52050-cb004; experiment: thermal shift delta Tm vs DMSO control; higher = stronger stabilization (binding); conditions: 12.5 µM; protein concentration 2 µM;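 also: purified Escherichia coli-expressed rice kinase domain construct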
Sequence (as listed by the source): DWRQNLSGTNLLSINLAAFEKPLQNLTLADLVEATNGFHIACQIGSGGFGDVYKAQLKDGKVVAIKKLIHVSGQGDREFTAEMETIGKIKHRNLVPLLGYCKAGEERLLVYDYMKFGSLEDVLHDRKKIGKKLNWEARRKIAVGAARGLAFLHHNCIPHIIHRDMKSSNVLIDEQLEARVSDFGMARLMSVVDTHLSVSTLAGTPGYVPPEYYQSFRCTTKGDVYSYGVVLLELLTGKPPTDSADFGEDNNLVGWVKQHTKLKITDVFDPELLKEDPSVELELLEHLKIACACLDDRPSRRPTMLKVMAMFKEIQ
Experimental Endpoint: thermal shift delta Tm (°C)
Number in °C, nothing else.

Previously resolved entries follow.
Task: Fetch value of thermal shift delta Tm on LOC_OS01G52050-cb004 for "C[C@@H]1COC(Nc2ccc3ncnc(Nc4ccc(OCc5nccs5)c(Cl)c4)c3c2)=N1" .
Output: 0.92

Task: Fetch value of thermal shift delta Tm on LOC_OS01G52050-cb004 for "CCN1C(=O)CNc2ncc(-c3ccc(-c4nc[nH]n4)nc3C)nc21" .
Output: -1.26

Task: Fetch value of thermal shift delta Tm on LOC_OS01G52050-cb004 for "C[C@@H](Oc1cc(-c2cnn(C3CCNCC3)c2)cnc1N)c1c(Cl)ccc(F)c1Cl" .
Output: 4.57

Task: Fetch value of thermal shift delta Tm on LOC_OS01G52050-cb004 for "CCn1c(-c2nonc2N)nc2c(C#CC(C)(C)O)ncc(OC[C@H]3CCCNC3)c21" .
Output: 0.04

Task: Fetch value of thermal shift delta Tm on LOC_OS01G52050-cb004 for "N#Cc1cnc(Nc2cc(NC[C@H]3CNCCO3)c(C(F)(F)F)cn2)cn1" .
Output: 5.23

Task: Fetch value of thermal shift delta Tm on LOC_OS01G52050-cb004 for "C[C@@H](N)c1ccc(C(=O)Nc2ccnc3[nH]ccc23)cc1" .
Output: 1.35

Task: Fetch value of thermal shift delta Tm on LOC_OS01G52050-cb004 for "COc1cc(C(=O)N2CCC(N3CCN(C)CC3)CC2)ccc1Nc1ncc2c(n1)N(C)c1ccccc1C(=O)N2C" .
Output: -0.4

Task: Fetch value of thermal shift delta Tm on LOC_OS01G52050-cb004 for "COc1cc2ncnc(Nc3ccc(Cl)cc3F)c2cc1OC" .
Output: 0.58

***
Task: Fetch value of thermal shift delta Tm on LOC_OS01G52050-cb004 for "Cn1cc(-c2ccc3ncc(Cc4ccc5ncccc5c4)n3n2)cn1" .
Output: 0.62

Task: Fetch value of thermal shift delta Tm on LOC_OS01G52050-cb004 for "C#Cc1cccc(Nc2ncnc3cc4c(cc23)OCCOCCOCCO4)c1" .
Output: 0.36
